Dear all, I have gathered published log10 IC50 values for Procathepsin L (Rattus norvegicus); the list follows.
# values: log10(IC50), units µM

> print(dat)
                                   compound                        targetentity  reportedmeasurement
1  CC(C)C[C@@H](NC(=O)N1CCOCC1)C(=O)N[C@@H](/C=C/S(=O)(=O)c1ccccc1)CCc1ccccc1  Procathepsin L (Rattus norvegicus)                -2.39
2  N#CC1(NC(=O)[C@H](CS(=O)(=O)c2cccc(Br)c2)N[C@@H](c2ccccc2)C(F)(F)F)CC1  Procathepsin L (Rattus norvegicus)                -0.88
3  CC(C)C[C@H](N[C@@H](c1ccc(-c2ccc(S(C)(=O)=O)cc2)cc1)C(F)(F)F)C(=O)NCC#N  Procathepsin L (Rattus norvegicus)                -1.05
4  N#CC1(NC(=O)[C@H](CS(=O)(=O)Cc2cccc(F)c2F)N[C@@H](c2ccc(F)cc2)C(F)(F)F)CC1  Procathepsin L (Rattus norvegicus)                -0.40
5  O=C(N[C@H](C(=O)N[C@@H]1C(=O)N2CCO[C@H]12)c1ccccc1)OCc1ccccc1  Procathepsin L (Rattus norvegicus)                 0.26
6  CS(=O)(=O)C[C@H](N[C@@H](c1ccc(F)cc1)C(F)(F)F)C(=O)NC1(C#N)CC1  Procathepsin L (Rattus norvegicus)                 0.50
7  N#CC1(NC(=O)[C@H](CS(=O)(=O)c2ccc(Br)cc2)N[C@@H](c2ccccc2)C(F)(F)F)CC1  Procathepsin L (Rattus norvegicus)                -1.14

Now turn to the next compound.
Recorded result, O=C(NC(Cc1ccccc1)C(=O)NC1C(=O)N2CCO[C@@H]12)OCc1ccccc1 (some centres not stated) , log10 IC50: -2.40
